Provide the reported MIC80 of each item.
- Tested on: Mycobacterium tuberculosis
- EXPERIMENT DESCRIPTION: Antimycobacterial activity against drug sensitive Mycobacterium tuberculosis Erdman by turbidometric method
- Type: functional
- APPLIED CONDITIONS: Erdman = ATCC 35801
Give bare numbers, in µM.

# example entries with known answers
CC1COc2c(N3CCN(C)CC3)c(F)cc3c(=O)c(C(=O)O)cn1c23 (centres undefined) [OFLOXACIN]: 0.7
CN[C@@H]1[C@H](O[C@H]2[C@H](O[C@H]3[C@H](O)[C@@H](O)[C@H](N=C(N)N)[C@@H](O)[C@@H]3N=C(N)N)O[C@@H](C)[C@]2(O)C=O)O[C@@H](CO)[C@H](O)[C@H]1O [STREPTOMYCIN]: 0.3
CN(C)CCOc1ncc(Nc2cc(-c3ccccc3)nc3cc(-c4ccc(F)cc4)[nH]c23)cc1F: 3.1

Could you now look at the following compound, please?
Fill blank: measured MIC80 of the compound COc1cc2nc(N3CCC(c4ccccc4Cl)C3)cc(Nc3cnc(OCCN(C)C)c(F)c3)c2cc1OC (centres undefined) is ____. 3.1

----------
Assign MIC to each entry below.
- Test system: Mycobacterium tuberculosis
- EXPERIMENT DESCRIPTION: Antimycobacterial activity against Mycobacterium tuberculosis under aerobic condition after 7 days by microdilution method
- Assay type: functional
- APPLIED CONDITIONS: 168 h
Answers are plain numbers, in µM.

COc1cc2nc(NCCC3CCOCC3)nc(Nc3ncc(C(C)C)s3)c2cc1OC: 6.2
CCOc1ncc(Nc2cc(NCCC3CCOCC3)nc3cc(OC)c(OC)cc23)cc1F: 6.2

Attention now turns to another entry.
MIC for `COc1cc2nc(NCCC3CCOCC3)nc(Nc3cc(C(C)(C)C)n(C)n3)c2cc1OC` ? 6.2

----------
Answer each item with its documented MIC.
- Tested on: Mycobacterium tuberculosis
- EXPERIMENT DESCRIPTION: Antimycobacterial activity against Mycobacterium tuberculosis under aerobic condition after 7 days by microdilution method
- Assay type: functional
- APPLIED CONDITIONS: 168 h
Answers are plain numbers, in µM.

CC(Nc1nc(N2CCCCC2)nc2ccccc12)c1ccccc1 (stereo not drawn): 25
Cn1nc(Nc2nc(NCCC3CCOCC3)nc3ccccc23)cc1C(C)(C)C: 6.2
COc1cc2nc(N3CCC(c4ccccc4Cl)C3)cc(Nc3cnc(NCCN(C)C)c(F)c3)c2cc1OC (stereo not drawn): 1.6
COc1cc2nc(NCCC3CCOCC3)nc(Nc3cnc(OC)c(C)c3)c2cc1OC: 3.1
COc1cc2nc(N3CCC(c4ccccc4Cl)C3)cc(Nc3cnc(OCC4CCCN4C)c(F)c3)c2cc1OC (stereo not drawn): 6.2

Below are 3 compounds. Give each one its MIC.
1. CN(C)CCOc1ncc(Nc2cc(N3CCC(c4ccccc4Cl)C3)nc3cc(F)c(F)cc23)cc1F (stereo not drawn)
2. CN(C)CCOc1ncc(Nc2cc(-c3ccccc3)nc3cc(-c4ccc(F)cc4)[nH]c23)cc1F
3. CN(C)CCOc1ncc(Nc2cc(-c3ccccc3)nc3cc(-c4ccc(F)cc4)nn23)cc1F

1. 3.1
2. 0.8
3. 6.2

----------
- EXPERIMENT DESCRIPTION: Selectivity index, ratio of IC50 for bovine heart mitochondrial ATP synthase to IC50 for ATP synthase in Mycobacterium smegmatis inverted membrane vesicles
Task for the reader: assign each of the following compounds its reported Ratio IC50.

COc1cc2nc(N3CCC(c4ccccc4Cl)C3)cc(Nc3cnc(OCCN(C)C)c(F)c3)c2cc1OC (centres undefined): 128
COc1cc2nc(N3CCC(c4ccccc4Cl)C3)cc(Nc3cnc(OCC4CCCN4C)c(F)c3)c2cc1OC (centres undefined): 44
COc1cc2nc(NCCC3CCOCC3)cc(Nc3cnc(OCCN(C)C)c(F)c3)c2cc1OC: 1
COc1cc2nc(N3CCC(c4ccccc4Cl)C3)cc(Nc3cnc(NCCN(C)C)c(F)c3)c2cc1OC (centres undefined): 51
CCOc1ncc(Nc2cc(NCCC3CCOCC3)nc3ccnn23)cc1F: > 1.2

State recorded Ratio IC50 for all listed compounds.
1. COc1cc2nc(NCCc3ccccc3Cl)cc(Nc3cnc(OCCN(C)C)c(F)c3)c2cc1OC
2. CC(Nc1nc(N2CCCC2)nc2ccccc12)c1ccccc1 (centres undefined)
3. COc1cc2nc(NCCC3CCOCC3)nc(Nc3cnc(OCCN(C)C)c(F)c3)c2cc1OC
4. CN(C)CCOc1ncc(Nc2cc(C(F)(F)F)nc3cc(-c4ccc(F)cc4)nn23)cc1F

79
< 0.04
> 28
19

----------
- Tested on: Mycobacterium tuberculosis
- EXPERIMENT DESCRIPTION: Antimycobacterial activity against drug sensitive Mycobacterium tuberculosis Harlingen by turbidometric method
- Type: functional
METRIC NAME: MIC80 (µM)
Numbers only, in µM.

// worked examples, MIC80 included
CN[C@@H]1[C@H](O[C@H]2[C@H](O[C@H]3[C@H](O)[C@@H](O)[C@H](N=C(N)N)[C@@H](O)[C@@H]3N=C(N)N)O[C@@H](C)[C@]2(O)C=O)O[C@@H](CO)[C@H](O)[C@H]1O: 0.3
CO[C@H]1/C=C/O[C@@]2(C)Oc3c(C)c(O)c4c(O)c(c(/C=N/N5CCN(C)CC5)c(O)c4c3C2=O)NC(=O)/C(C)=C\C=C\[C@H](C)[C@H](O)[C@@H](C)[C@@H](O)[C@@H](C)[C@H](OC(C)=O)[C@@H]1C: 0.04
CN(C)CCOc1ncc(Nc2cc(N3CCC(c4ccccc4Cl)C3)nc3cc(F)c(F)cc23)cc1F (centres undefined): 3.1

# context switch: different compound, same MIC80
What does the record list as MIC80 for `CN(C)CCOc1ncc(Nc2cc(-c3ccccc3)nc3cc(-c4ccc(F)cc4)nn23)cc1F` ? 6.3

----------
- EXPERIMENT DESCRIPTION: Selectivity index, ratio of IC50 for bovine heart mitochondrial ATP synthase to IC50 for ATP synthase in Mycobacterium smegmatis inverted membrane vesicles
Kindly state Ratio IC50 for each of the entries shown.
Answers are plain numbers.

Some solved entries appear below for comparison.
CCOc1ncc(Nc2cc(NCCC3CCOCC3)nc3cc(OC)c(OC)cc23)cc1F: 3.2
COc1cc2nc(NCCc3cccnc3)nc(Nc3cnc(OC)c(C)c3)c2cc1OC: 96
COc1cc2nc(NCCC3CCOCC3)nc(Nc3cc(C(C)(C)C)n(C)n3)c2cc1OC: 52
CN(C)CCOc1ncc(Nc2cc(-c3ccccc3)nc3cc(-c4ccc(F)cc4)nn23)cc1F: 20

What measured Ratio IC50 goes with `COc1cc2nc(NCCC3CCOCC3)nc(Nc3cnc(OC)c(C)c3)c2cc1OC` ? 10

----------
- EXPERIMENT DESCRIPTION: Inhibition of ATP synthase in Mycobacterium smegmatis inverted membrane vesicles assessed as reduction in oxidative phosphorylation of ADP incubated for 60 mins in presence of NADH by luciferin/luciferase coupled […] assay
- Parameters: species or system Mycolicibacterium smegmatis
Give IC50 for every item shown.
One number for each entry, in nM.

N#CC(C#N)=NNc1cccc(Cl)c1 [CARBONYL CYANIDE M-CHLOROPHENYLHYDRAZONE]: 4800
CN(C)CCOc1ncc(Nc2cc(-c3ccccc3)nc3cc(-c4ccc(F)cc4)[nH]c23)cc1F: 100
COc1cc2nc(N3CCC(c4ccccc4Cl)C3)cc(Nc3cnc(OCCN(C)C)c(F)c3)c2cc1OC (stereo not drawn): 40
COc1cc2nc(N3CCC(c4ccccc4Cl)C3)cc(Nc3cnc(NCCN(C)C)c(F)c3)c2cc1OC (stereo not drawn): 100
CCOc1ncc(Nc2cc(NCCC3CCOCC3)nc3ccnn23)cc1F: 21000

Can you give me IC50 for all of these, one by one?
1. COc1cc2nc(N3CCC(c4ccccc4Cl)C3)cc(Nc3cnc(OCC4CCCN4C)c(F)c3)c2cc1OC (stereo not drawn)
2. CC(Nc1nc(N2CCCCC2)nc2ccccc12)c1ccccc1 (stereo not drawn)
3. CCOc1ncc(Nc2nc(OCCC3CCOCC3)nc3cc(OC)c(OC)cc23)cc1F
4. COc1nc2ccc(Br)cc2cc1[C@@H](c1ccccc1)[C@@](O)(CCN(C)C)c1cccc2ccccc12 [BEDAQUILINE]
5. CCOc1ncc(Nc2nc(NCCC3CCOCC3)nc3cc(OC)c(OC)cc23)cc1F
6. COc1cc2nc(NCCC3CCOCC3)nc(Nc3ncc(C(C)C)s3)c2cc1OC
7. COc1cc2nc(NCCC3CCOCC3)nc(Nc3cc(C(C)(C)C)n(C)n3)c2cc1OC

[60, 2100, 25000, 5, 600, 100, 100]

----------
For each record, write down the corresponding MIC80.
- System: Mycobacterium tuberculosis
- EXPERIMENT DESCRIPTION: Antimycobacterial activity against drug sensitive Mycobacterium tuberculosis Harlingen by turbidometric method
- Format: functional
Give bare numbers, in µM.

COc1cc2nc(N3CCC(c4ccccc4Cl)C3)cc(Nc3cnc(OCCN(C)C)c(F)c3)c2cc1OC (stereo unspecified): 3.1
CC1COc2c(N3CCN(C)CC3)c(F)cc3c(=O)c(C(=O)O)cn1c23 (stereo unspecified): 0.7
CC[C@@H](CO)NCCN[C@@H](CC)CO: 9.8

Batch lookup, MIC80 per entry.
1. NNC(=O)c1ccncc1
2. CN(C)CCOc1ncc(Nc2cc(-c3ccccc3)nc3cc(-c4ccc(F)cc4)[nH]c23)cc1F

1. 0.2
2. 3.1
